Values were extracted from patent US20030099960A1.

Listing of entries alongside the reported Km.
Settings: read-out: Apparent Km of morphine glucuronidation; human liver microsomes; morphine 0.2-10 mM; mean ± SE
Return type: number; implicit unit µM.

INSERT INTO results (molecule, reported_metric, value) VALUES
  ('CN1CC[C@]23c4c5ccc(O)c4O[C@H]2[C@@H](O[C@@H]2O[C@H](C(=O)O)[C@@H](O)[C@H](O)[C@H]2O)C=C[C@H]3[C@H]1C5 [Morphine-6-glucuronide, morphine-6-glucuronide]', 'Km', 1870);

Next item in the queue.
QUERY: Entry CN1CC[C@]23c4c5ccc(O[C@@H]6O[C@H](C(=O)O)[C@@H](O)[C@H](O)[C@H]6O)c4O[C@H]2[C@@H](O)C=C[C@H]3[C@H]1C5 [Morphine-3-glucuronide, morphine-3-glucuronide] : reported Km = ?
RESULT: 1990
